- ASSAY_EXPLANATION: Inhibition of bovine hyaluronidase at pH 5.0
- Design: species or system Bos taurus
Classes based on IC50: low band = under 70 µM, middle band = from 70 µM up to 200 µM, high band = 200 µM and over

# example entries with known answers
[[record]]
compound = "O=C(Cc1ccc(-c2ccccc2)cc1)OC[C@H](O)[C@H]1OC(=O)C(O)=C1O"
group_label = "high band"

[[record]]
compound = "O=C(CCCCCCCCCCOc1ccccc1)OC[C@H](O)[C@H]1OC(=O)C(O)=C1O"
group_label = "middle band"

[[record]]
compound = "CCCCCCCCCC(=O)OC[C@H](O)[C@H]1OC(=O)C(O)=C1O"
group_label = "high band"

[[record]]
compound = "O=C(CCCCCOc1ccc(-c2ccccc2)cc1)OC[C@H](O)[C@H]1OC(=O)C(O)=C1O"
group_label = "middle band"

[[record]]
compound = "O=C(CCCCCOc1ccc(OCc2ccccc2)cc1)OC[C@H](O)[C@H]1OC(=O)C(O)=C1O"
group_label = "high band"

[[record]]
compound = "CCCCCCCCCCCCC(=O)OC[C@H](O)[C@H]1OC(=O)C(O)=C1O"
group_label = "middle band"


Ask | Please indicate the class for CCCCCCCCCCCCCCCCCC(=O)OC[C@H](O)[C@H]1OC(=O)C(O)=C1O [ASCORBYL STEARATE] based on its IC50.
Reply | low band

Ask | Please indicate the class for O=C(CCCCCCCCCCOc1ccc(-c2ccccc2)cc1)OC[C@H](O)[C@H]1OC(=O)C(O)=C1O based on its IC50.
Reply | low band

* * *

- ASSAY_EXPLANATION: Inhibition of Streptococcus pneumoniae hyaluronidase
OUTCOME_MEASURE: IC50 (mM)
Number only, in mM; omit the unit.

Ask | May I ask what IC50 has been recorded for O=C1O[C@H]([C@@H](O)CO)C(O)=C1O ?
Reply | 5.8

* * *

- ASSAY_EXPLANATION: Inhibition of Streptococcus agalactiae 4755 hyaluronidase at pH 5.0
OUTCOME_MEASURE: pIC50
The meaning of pIC50 here: minus log10 of the concentration in molar units.

Record excerpt, results attached:
[[record]]
molecule = "CCCCCCCCCCC(=O)OC[C@H](O)[C@H]1OC(=O)C(O)=C1O"
outcome_measure = "pIC50"
assay_value = 4.14

[[record]]
molecule = "CCCCCCCCCCCCCCCC(=O)OC[C@H](O)[C@H]1OC(=O)C(O)=C1O [ASCORBYL PALMITATE]"
outcome_measure = "pIC50"
assay_value = 5.38

[[record]]
molecule = "CCc1ccc(OCCCCCC(=O)OC[C@H](O)[C@H]2OC(=O)C(O)=C2O)cc1"
outcome_measure = "pIC50"
assay_value = 3.55

[[record]]
molecule = "CCCCCCCCCCCCC(=O)OC[C@H](O)[C@H]1OC(=O)C(O)=C1O"
outcome_measure = "pIC50"
assay_value = 4.84

[[record]]
molecule = "CCCCCCCCCCCC(=O)OC[C@H](O)[C@H]1OC(=O)C(O)=C1O"
outcome_measure = "pIC50"
assay_value = 4.33


Ask | May I ask what pIC50 has been recorded for O=C(CCCCCOCc1ccccc1)OC[C@H](O)[C@H]1OC(=O)C(O)=C1O ?
Reply | 3.36

Ask | May I ask what pIC50 has been recorded for O=C1O[C@H]([C@@H](O)CO)C(O)=C1O ?
Reply | 2.21

Ask | May I ask what pIC50 has been recorded for O=C(CCCCCOc1ccc(OCc2ccccc2)cc1)OC[C@H](O)[C@H]1OC(=O)C(O)=C1O ?
Reply | 4.12

Ask | May I ask what pIC50 has been recorded for CCCCCCCCCC(=O)OC[C@H](O)[C@H]1OC(=O)C(O)=C1O ?
Reply | 3.99

* * *

- ASSAY_EXPLANATION: Inhibition of bovine hyaluronidase at pH 5.0
- Design: species or system Bos taurus
// values below are reported IC50

Record excerpt, results attached:
[[record]]
molecule = "CCCCCCCCCCCC(=O)OC[C@H](O)[C@H]1OC(=O)C(O)=C1O"
assay_value = "208 µM"

[[record]]
molecule = "O=C(CCCCCOCc1ccc(-c2ccccc2)cc1)OC[C@H](O)[C@H]1OC(=O)C(O)=C1O"
assay_value = "543 µM"

[[record]]
molecule = "CCCCCCCCCCCCCCCC(=O)OC[C@H](O)[C@H]1OC(=O)C(O)=C1O [ASCORBYL PALMITATE]"
assay_value = "57 µM"


Ask | May I ask what IC50 has been recorded for CCCCCCCCCCC(=O)OC[C@H](O)[C@H]1OC(=O)C(O)=C1O ?
Reply | 580 µM

* * *

- ASSAY_EXPLANATION: Inhibition of Streptococcus agalactiae 4755 hyaluronidase at pH 5.0
Classes based on IC50: low bin (below 30 µM), mid bin (30 µM to below 400 µM), high bin (400 µM or more)

[[record]]
compound = "O=C(CCCCCOc1ccccc1)OC[C@H](O)[C@H]1OC(=O)C(O)=C1O"
group_label = "high bin"

[[record]]
compound = "O=C(CCCCCOc1ccc(-c2ccccc2)cc1)OC[C@H](O)[C@H]1OC(=O)C(O)=C1O"
group_label = "mid bin"

[[record]]
compound = "CCCCCC(=O)OC[C@H](O)[C@H]1OC(=O)C(O)=C1O"
group_label = "high bin"

[[record]]
compound = "O=C1O[C@H]([C@@H](O)CO)C(OCc2ccccc2)=C1OCc1ccccc1"
group_label = "mid bin"

[[record]]
compound = "O=C1O[C@H]([C@@H](O)COC(=O)c2ccccc2)C(O)=C1O"
group_label = "mid bin"

[[record]]
compound = "CCCCCCCC(=O)OC[C@H](O)[C@H]1OC(=O)C(O)=C1O"
group_label = "high bin"


Ask | Please indicate the class for O=C(CCCCCOCc1ccc(-c2ccccc2)cc1)OC[C@H](O)[C@H]1OC(=O)C(O)=C1O based on its IC50.
Reply | mid bin

Ask | Please indicate the class for O=C(CCCCCCCCCCOc1ccccc1)OC[C@H](O)[C@H]1OC(=O)C(O)=C1O based on its IC50.
Reply | mid bin

Ask | Please indicate the class for O=C(Cc1ccc(-c2ccccc2)cc1)OC[C@H](O)[C@H]1OC(=O)C(O)=C1O based on its IC50.
Reply | mid bin

Ask | Please indicate the class for CCCCCCCCCCCCCCCCCC(=O)OC[C@H](O)[C@H]1OC(=O)C(O)=C1O [ASCORBYL STEARATE] based on its IC50.
Reply | low bin

Ask | Please indicate the class for O=C(CCCCCCCCCCOc1ccc(-c2ccccc2)cc1)OC[C@H](O)[C@H]1OC(=O)C(O)=C1O based on its IC50.
Reply | low bin

Ask | Please indicate the class for CCCCCCCCCCCCCC(=O)OC[C@H](O)[C@H]1OC(=O)C(O)=C1O based on its IC50.
Reply | low bin
